The entries below are paired with their reported Peptide remaining after 48 h.
No end group written: not given here.

{"substance": "RNPRGEEGGPW [H-RN]", "value measured": "> 90%"}

What the record says about H-FTSNPEVRYEV-OH : Peptide remaining after 48 h is > 90%
